B1: CROP (parent)
chain: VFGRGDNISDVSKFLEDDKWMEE

# Variants of: B1
# assay_notes: protein stability index of a GFP-peptide fusion (GPS, HEK-293T) (PSI 1-6); higher = more stable;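 note: lentivirally expressed fusions sorted by FACS into six bins by GFP to DsRed ratio, PSI derived from sequencing read proportions per bin multiplied by bin number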
# particulars: c terminus: native
Record Y whenever protein stability index is at 2 or higher; record N when lower.

The following variants have reported results that may help.
V1N: Y
D6Q: Y
S9P: Y
F14H: Y
G5M: N

Query variant follows.
Hello, I need to know if E22M has measured protein stability index not below 2. Thanks!
Y
